assay target: hydroxymethyldihydropteridine pyrophosphokinase (HMPPS) (Escherichia coli)
Sequence (P26281 whole entry): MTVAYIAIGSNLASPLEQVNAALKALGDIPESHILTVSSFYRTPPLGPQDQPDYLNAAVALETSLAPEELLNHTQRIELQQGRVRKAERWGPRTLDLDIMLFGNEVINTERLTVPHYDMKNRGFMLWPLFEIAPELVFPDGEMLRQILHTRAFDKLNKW
endpoint name: IC50 (µM)
Give bare numbers, in µM.

INPUT: So what does the record say about IC50 for CCC1(CC)Nc2nc(N)nc(O)c2N=C1CO ?
OUTPUT: 2.1
